Cited source for all entries: patent US8110681B2

- Method description: Plasma and brain pharmacokinetics in mice
- Assay type: in vivo, FVB or CD-1 mice
- Test parameters: mouse, plasma, 5 mg/kg, oral, single dose
Assign AUC to each entry below.
Could you give me the number in ng·h/mL? Just the number is fine.

input: Please look up its AUC: COc1ccc2c(c1)C(=O)N(c1ccc(C(C)(C)C)cc1)C2
output: 10.7

input: Then what about the molecule COc1ccc2c(c1)C(=O)N(c1ccc(C(C)C(=O)O)cc1)C2 (stereo not shown) ?
output: 21100

input: Then what about the molecule CC(C)c1ccc(N2Cc3cc4c(cc3C2=O)OCCO4)cc1 ?
output: 47.8

input: Then what about the molecule Br.COCC(C)c1ccc(N2Cc3ccc(C)cc3C2=O)cc1 (stereo not shown) ?
output: 595
